# measuredTarget: Dual specificity mitogen-activated protein kinase kinase; MEK1/2 (Homo sapiens, UniProt P36507+Q02750)
# assayInfo: Inhibition of human MEK using fluorescein-labelled Erk-tide as substrate after 20 mins by IMAP assay
valueKind: IC50
For clarity, give the value followed by its unit.

>>> experimentalresult("CC1(C)CNC(=O)c2sc(Nc3ccc(I)cc3F)c(C(=O)NCCCO)c2C1")
"309 nM"

Lab book: IC50 of CC1(C)CNC(=O)c2sc(Nc3ccc(I)cc3F)c(C(=O)NOC[C@H](O)CO)c2C1 noted as 6 nM

Lab book: IC50 of CC1(C)CNC(=O)c2sc(Nc3ccc(I)cc3Cl)c(C(=O)N3CCNCC3)c2C1 noted as 456 nM

Lab book: IC50 of CC1(C)CNC(=O)c2sc(Nc3ccc(I)cc3F)nc2C1 noted as 946 nM

---

# assayInfo: Cmax in mouse at 10 mg/kg, po
# Format: ADME, organism-based
# Parameters: dose 10 mg/kg, route oral
# testConditions: in vivo
valueKind: Cmax (ng/mL)
A number alone suffices; assume ng/mL.

Lab book: Cmax of CC(C)(N)CNC(=O)c1c(Nc2ccc(I)cc2F)sc2c1CC(C)(C)CNC2=O noted as 323

---

# assayInfo: AUC (0 to last) in mouse at 10 mg/kg, po
# Type: ADME, organism-based
# Set-up: time 0 - last, dose 10 mg/kg, route oral
# testConditions: plasma
valueKind: AUC(0-t) (ng·h/mL)
A number alone suffices; assume ng·h/mL.

Lab book: AUC(0-t) of CC(C)(N)CNC(=O)c1c(Nc2ccc(I)cc2F)sc2c1CC(C)(C)CNC2=O noted as 1240

---

# measuredTarget: Dual specificity mitogen-activated protein kinase kinase; MEK1/2 (Homo sapiens, UniProt P36507+Q02750)
# assayInfo: Inhibition of human MEK using fluorescein-labelled Erk-tide as substrate after 20 mins by IMAP assay
valueKind: log10(IC50) (log10 of the value in µM)
Log scale reminder: IC50 in µM, then log10 taken.

Use the examples below as a reference point.
>>> experimentalresult("CCOC(=O)c1c(Nc2ccc(I)cc2Cl)sc2c1CC(C)(C)CNC2=O")
0.42
>>> experimentalresult("CC1(C)CNC(=O)c2sc(Nc3ccc(I)cc3F)c(C(=O)N[C@@H]3CCCNC3)c2C1")
-1.66
>>> experimentalresult("CC1(C)CNC(=O)c2sc(Nc3ccc(I)cc3Cl)c(C(=O)NCC[C@@H](O)CO)c2C1")
-0.70
>>> experimentalresult("CCOC(=O)c1c(Nc2ccc(I)cc2F)sc2c1CC(C)(C)CNC2=O")
-0.52
>>> experimentalresult("CC(C)(N)CNC(=O)c1c(Nc2ccc(I)cc2F)sc2c1CC(C)(C)CNC2=O")
-1.85

Lab book: log10(IC50) of CC1(C)CNC(=O)c2sc(Nc3ccc(I)cc3Cl)c(C(=O)NOC[C@H](O)CO)c2C1 noted as -2.05

Lab book: log10(IC50) of CC1(C)CNC(=O)c2sc(Nc3ccc(I)cc3F)c(C(=O)O)c2C1 noted as -1.85

Lab book: log10(IC50) of CC1(C)CNC(=O)c2sc(Nc3ccc(I)cc3F)c(C(=O)NC[C@H]3CCCN3)c2C1 noted as -1.38

Lab book: log10(IC50) of CC1(C)CNC(=O)c2sc(Nc3ccc(I)cc3F)c(C(N)=O)c2C1 noted as -2.05

Lab book: log10(IC50) of CC1(C)CNC(=O)c2sc(Nc3ccc(I)cc3F)c(C(=O)NOCCO)c2C1 noted as -2.15

---

# measuredTarget: Dual specificity mitogen-activated protein kinase kinase; MEK1/2 (Homo sapiens, UniProt P36507+Q02750)
# assayInfo: Inhibition of human MEK using fluorescein-labelled Erk-tide as substrate after 20 mins by IMAP assay
Simple rule here: IC50 less than 10 nM is criterion met, otherwise criterion not met.

>>> grouplabel("CC(C)(N)CNC(=O)c1c(Nc2ccc(I)cc2Cl)sc2c1CC(C)(C)CNC2=O")
"criterion not met"
>>> grouplabel("CC1(C)CNC(=O)c2sc(Nc3ccc(I)cc3F)c(C(=O)N[C@@H]3CCNC3)c2C1")
"criterion met"
>>> grouplabel("CC1(C)CNC(=O)c2sc(Nc3ccc(I)cc3Cl)c(C(=O)NC[C@@H](O)CO)c2C1")
"criterion not met"
>>> grouplabel("CC1(C)CNC(=O)c2sc(Nc3ccc(I)cc3Cl)c(C(N)=O)c2C1")
"criterion not met"

Determine if CNC(=O)c1c(Nc2ccc(I)cc2Cl)sc2c1CC(C)(C)CNC2=O shows IC50 strictly lower than 10 nM.
criterion not met

---

# assayInfo: Inhibition of Erk phosphorylation in human HT-29 cells
# Format: cell-based
pIC50: −log10 of the molar value.
Decide using pIC50: a value greater than or equal to 7 is Met, a smaller one is Not met.

>>> grouplabel("CC1(C)CNC(=O)c2sc(Nc3ccc(I)cc3F)c(C(=O)NOCCO)c2C1")
"Met"
>>> grouplabel("CC1(C)CNC(=O)c2sc(Nc3ccc(I)cc3Cl)c(C(=O)N3CCNCC3)c2C1")
"Met"

Is reported pIC50 greater than or equal to 7 here: CC1(C)CNC(=O)c2sc(Nc3ccc(I)cc3F)c(C(=O)NC[C@H]3CCCN3)c2C1
Met

Is reported pIC50 greater than or equal to 7 here: CC1(C)CNC(=O)c2sc(Nc3ccc(I)cc3F)c(C(=O)O)c2C1
Not met

Is reported pIC50 greater than or equal to 7 here: CNC(=O)c1c(Nc2ccc(I)cc2Cl)sc2c1CC(C)(C)CNC2=O
Not met

Is reported pIC50 greater than or equal to 7 here: CC1(C)CNC(=O)c2sc(Nc3ccc(I)cc3Cl)c(C(=O)NCC[C@@H](O)CO)c2C1
Not met

Is reported pIC50 greater than or equal to 7 here: CC1(C)CNC(=O)c2sc(Nc3ccc(I)cc3F)c(C(=O)NOC[C@H](O)CO)c2C1
Met

---

# assayInfo: Inhibition of Erk phosphorylation in human HT-29 cells
# Assay type: cell-based
valueKind: IC50 (µM)
A number alone suffices; assume µM.

>>> experimentalresult("CC1(C)CNC(=O)c2sc(Nc3ccc(I)cc3F)c(C(=O)NCCCO)c2C1")
0.14
>>> experimentalresult("CC(C)(N)CNC(=O)c1c(Nc2ccc(I)cc2F)sc2c1CC(C)(C)CNC2=O")
0.006
>>> experimentalresult("CC1(C)CNC(=O)c2sc(Nc3ccc(I)cc3F)nc2C1")
1.54
>>> experimentalresult("CC1(C)CNC(=O)c2sc(Nc3ccc(I)cc3Cl)c(C(=O)NC[C@@H](O)CO)c2C1")
0.043
>>> experimentalresult("CC1(C)CNC(=O)c2sc(Nc3ccc(I)cc3Cl)c(C(N)=O)c2C1")
0.092
>>> experimentalresult("CC1(C)CNC(=O)c2sc(Nc3ccc(I)cc3Cl)c(C(=O)NOC[C@H](O)CO)c2C1")
0.076
>>> experimentalresult("CC1(C)CNC(=O)c2sc(Nc3ccc(I)cc3F)c(C(=O)N[C@@H]3CCCNC3)c2C1")
0.005
>>> experimentalresult("CC1(C)CNC(=O)c2sc(Nc3ccc(I)cc3F)c(C(=O)N[C@@H]3CCNC3)c2C1")
0.009

Lab book: IC50 of CC(C)(N)CNC(=O)c1c(Nc2ccc(I)cc2Cl)sc2c1CC(C)(C)CNC2=O noted as 0.013
